Value source: patent US20080026996A1

Each entry below lists one item and its recorded pIC50 value.
- assayedTarget: human VPAC2 (Homo sapiens, UniProt P41587)
- Construct: expressed in transfected cells
- Sequence (P41587 24-438): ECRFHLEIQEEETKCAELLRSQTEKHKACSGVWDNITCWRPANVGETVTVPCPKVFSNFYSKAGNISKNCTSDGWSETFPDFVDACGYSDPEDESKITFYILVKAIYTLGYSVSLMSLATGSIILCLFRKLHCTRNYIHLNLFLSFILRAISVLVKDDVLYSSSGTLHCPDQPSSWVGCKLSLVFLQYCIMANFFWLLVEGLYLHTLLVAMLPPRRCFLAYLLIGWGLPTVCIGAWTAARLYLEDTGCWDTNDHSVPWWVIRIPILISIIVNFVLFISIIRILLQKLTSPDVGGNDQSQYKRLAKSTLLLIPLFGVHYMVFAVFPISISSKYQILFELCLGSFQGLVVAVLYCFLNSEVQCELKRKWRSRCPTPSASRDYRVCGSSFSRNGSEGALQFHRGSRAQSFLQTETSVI
- testProtocol: Filter binding assay, membranes of stable VPAC2 cell line, 125I-labeled VIP tracer (Table 2)
Where no end group is shown, it is not given here. [ ]: non-standard residue; d: D form. Met(O) = CS(=O)CC[C@H](N)C(=O)O
Keep in mind that pIC50 stands for -log10 of concentration in molar terms.

substance	assayedTarget	reportedValue
[Met(O)]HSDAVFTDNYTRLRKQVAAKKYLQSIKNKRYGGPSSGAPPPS [Agonist P199]	human VPAC2 (Homo sapiens, UniProt P41587)	8.08
H-HSDGVFTDNYTRLRKQVAAKKYLQSIKNKRYGGPSSGAPPPS [Agonist P102]	human VPAC2 (Homo sapiens, UniProt P41587)	7.81
H-MHSDAVFTDNYTRLRKQVAAKKYLQSIKNKRYGGPSSGAPPPS [Agonist P104]	human VPAC2 (Homo sapiens, UniProt P41587)	9.17

Quick check: pIC50 of MHSDAVFTDNYTRLLAKLALQKYLQSIKNKRYGGPSSGAPPPS [Agonist P140] ?
8.71

Quick check: pIC50 of IHSDAVFTDNYTRLRKQVAAKKYLQSIKNKRYGGPSSGAPPPS [Agonist P105] ?
8.27

---

- assayedTarget: human PAC1 (Homo sapiens, UniProt P41586)
- Sequence (P41586 21-468): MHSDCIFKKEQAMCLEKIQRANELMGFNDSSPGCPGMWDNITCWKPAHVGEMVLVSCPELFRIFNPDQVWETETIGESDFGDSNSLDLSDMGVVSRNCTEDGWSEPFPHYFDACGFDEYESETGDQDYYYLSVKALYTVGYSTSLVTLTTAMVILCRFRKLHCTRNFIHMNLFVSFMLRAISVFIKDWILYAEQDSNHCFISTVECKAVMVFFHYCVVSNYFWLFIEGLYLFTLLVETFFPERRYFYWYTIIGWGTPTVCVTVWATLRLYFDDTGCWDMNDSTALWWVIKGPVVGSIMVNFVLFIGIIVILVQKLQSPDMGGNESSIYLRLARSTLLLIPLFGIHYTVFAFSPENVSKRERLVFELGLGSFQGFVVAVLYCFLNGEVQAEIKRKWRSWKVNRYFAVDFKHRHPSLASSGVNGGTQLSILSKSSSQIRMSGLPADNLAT
- testProtocol: Filter binding assay, membranes of cells transiently transfected with human PAC1, 125I-labeled PACAP-27 tracer (Table 2)
- Set-up: expressed in transfected cells
- testSettings: read-out: Human PAC1 Receptor Binding
Where no end group is shown, it is not given here. The star is where a group is joined. Hexanoyl = CCCCCC(=O)*
Each entry below lists one item and its recorded pIC50 value.
Keep in mind that pIC50 stands for -log10 of concentration in molar terms.

pIC50 of Hexanoyl-HSDAVFTRNYTRLRKQVAAKKYLQSIKNKRYGGPSSGAPPPS [Agonist P162] on human PAC1 (Homo sapiens, UniProt P41586)?
6.73

pIC50 of Hexanoyl-HSDAVFTDNYTRLRKQVAAKKYLQSTKNKRYGGPSSGAPPPS [Agonist P108] on human PAC1 (Homo sapiens, UniProt P41586)?
6.31
